Test system: epinephrine autoxidation
Assay: epinephrine autoxidation inhibition assay (oxygen radical reactivity)
Assay type: biochemical
Conditions: 25° C., 0.1M sodium carbonate, pH 10.2; A320; sulfate form; read-out: (A) Molarity for 50% inhibition of epinephrine autoxidation
value-kind: IC50
# include the unit after the value

Below are worked cases with known answers.
[[record]]
compound = "NC[C@H]1O[C@H](O[C@H]2[C@H](O)[C@@H](O[C@H]3O[C@H](CO)[C@@H](O)[C@H](N)[C@H]3O)[C@H](N)C[C@@H]2N)[C@H](O)[C@@H](O)[C@@H]1O [KM, kanamycin]"
value_kind = "IC50"
test_result = "700 µM"

[[record]]
compound = "[H]/N=C(/N)N[C@H]1[C@H](O)[C@@H](O)[C@H](O[C@@H]2O[C@@H](C)[C@](O)(C=O)[C@H]2O[C@@H]2O[C@@H](CO)[C@H](O)[C@@H](O)[C@@H]2NC)[C@@H](N/C(N)=N\\[H])[C@@H]1O [SM, streptomycin]"
value_kind = "IC50"
test_result = "740 µM"


Now consider a different compound.
Enquiry: Requested read-out: IC50. Entry: NC[C@@H]1O[C@H](O[C@H]2[C@@H](O)[C@H](O[C@@H]3[C@@H](O)[C@H](N)C[C@H](N)[C@H]3O[C@H]3O[C@H](CN)[C@@H](O)[C@H](O)[C@H]3N)O[C@@H]2CO)[C@H](N)[C@@H](O)[C@@H]1O [NM, neomycin]
Return: 2100 µM
